Molecular target: Factor-Xa (FXa) (Bos taurus)
Sequence (P00743 41-180): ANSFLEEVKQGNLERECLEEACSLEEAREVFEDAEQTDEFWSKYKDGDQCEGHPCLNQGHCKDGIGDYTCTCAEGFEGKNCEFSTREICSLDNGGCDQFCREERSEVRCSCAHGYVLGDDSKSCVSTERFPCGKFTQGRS
Sequence (P00743 234-492): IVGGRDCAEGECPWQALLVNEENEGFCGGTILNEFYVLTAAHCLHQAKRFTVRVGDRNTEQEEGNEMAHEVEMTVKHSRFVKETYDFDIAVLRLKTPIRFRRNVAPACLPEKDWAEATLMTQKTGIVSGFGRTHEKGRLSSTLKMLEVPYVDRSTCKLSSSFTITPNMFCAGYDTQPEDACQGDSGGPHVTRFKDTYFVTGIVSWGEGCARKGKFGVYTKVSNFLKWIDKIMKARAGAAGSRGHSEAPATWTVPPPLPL
Type: biochemical, Cow
Conditions: TABLE 4, CHA substrates; So = 0.54; pH 8.4; 37° C., 10 minutes; 0.4 U/ml
Assign yes to entries whose Selectivity FXa, absorbance (O.D.) at 645 nm meets or exceeds 0.002 O.D.; assign no to the rest.

Please review the following examples before continuing.
Cc1ccc(S(=O)(=O)NCCCC[C@@H](N)C(=O)N[C@@H](Cc2ccccc2)C(=O)N[C@@H](CCCCN)C(=O)Nc2ccc(O)c(C(=O)O)c2)cc1 [NPC-7, 2HCl.H-D-Lys(ToS)-L-Phe-L-Lys-CHA] :: no
Cc1ccc(CCNC(=O)CC[C@@H](N)C(=O)N[C@@H](Cc2ccccc2)C(=O)N[C@@H](CCCCN)C(=O)Nc2ccc(O)c(C(=O)O)c2)cc1 [NPC-24] :: yes
Cc1ccc(S(=O)(=O)Oc2ccc(C[C@@H](N)C(=O)N[C@@H](CC(C)C)C(=O)N[C@@H](CCCCN)C(=O)Nc3ccc(O)c(C(=O)O)c3)cc2)cc1 [NPC-13, HD-Tyr(Tos)LeuLysCHA.2HCl] :: no
Cc1ccc(S(=O)(=O)Oc2ccc(C[C@@H](N)C(=O)N[C@@H](Cc3ccccc3)C(=O)N[C@@H](CCCCN)C(=O)Nc3ccc(O)c(C(=O)O)c3)cc2)cc1 [NPC-11, HD-Tyr(Tos)PheLysCHA.2HCl] :: yes
CC(C)[C@@H](N)C(=O)N[C@@H](Cc1ccccc1)C(=O)N[C@@H](CCCCN)C(=O)Nc1ccc(O)c(C(=O)O)c1 [NPC-2, HD-ValPheLysCHA.2HCl] :: yes

Would you say NCCCC[C@H](NC(=O)[C@H](Cc1ccccc1)NC(=O)[C@H](N)CCCCNC(=O)c1ccc2ccccc2c1)C(=O)Nc1ccc(O)c(C(=O)O)c1 [NPC-9, HD-Lys(NaC)PheLysCHA.2HCl] shows Selectivity FXa, absorbance (O.D.) at 645 nm at minimum 0.002 O.D.? no

Is reported Selectivity FXa, absorbance (O.D.) at 645 nm greater than or equal to 0.002 O.D. here: CS(=O)(=O)NCCCC[C@@H](N)C(=O)N[C@@H](Cc1ccccc1)C(=O)N[C@@H](CCCCN)C(=O)Nc1ccc(O)c(C(=O)O)c1 [NPC-25] no

====

Target: Kallikrein (KL) (Sus scrofa)
Sequence (P00752 8-246): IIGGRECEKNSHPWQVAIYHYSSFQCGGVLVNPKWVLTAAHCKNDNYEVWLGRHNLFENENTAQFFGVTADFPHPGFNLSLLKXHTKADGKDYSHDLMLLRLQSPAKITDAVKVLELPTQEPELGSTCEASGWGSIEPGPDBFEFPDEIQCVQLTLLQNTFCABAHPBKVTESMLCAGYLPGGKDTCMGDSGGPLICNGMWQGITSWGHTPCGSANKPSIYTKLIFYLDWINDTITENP
Format: biochemical, Pig
Details: TABLE 3, PNA substrates; So = 0.54 mmole/l; pH 7.9; 37° C., 10 minutes; 1.0 BAEE-U/ml
Where a SMILES comes first, the peptide text is derived from it. [ ]: non-standard residue; d: D form. The star is where a group is joined. pNA = O=[N+]([O-])c1ccc(N*)cc1; Tos = Cc1ccc(S(=O)(=O)*)cc1
Readings of Selectivity KL, absorbance (O.D.) at 405 nm for the listed compounds
The answer should read as a number with its unit following.

Some compounds with known Selectivity KL, absorbance (O.D.) at 405 nm results, for comparison:
NCCCC[C@H](NC(=O)[C@H](Cc1ccccc1)NC(=O)[C@H](N)CCC(=O)NCCCCc1ccccc1)C(=O)Nc1ccc([N+](=O)[O-])cc1 :: 0.018 O.D.
Cc1ccc(CCNC(=O)CC[C@@H](N)C(=O)N[C@@H](Cc2ccccc2)C(=O)N[C@@H](CCCCN)C(=O)Nc2ccc([N+](=O)[O-])cc2)cc1 :: 0.011 O.D.
NCCCC[C@H](NC(=O)[C@H](Cc1ccccc1)NC(=O)[C@H](N)CCC(=O)NCCCc1ccccc1)C(=O)Nc1ccc([N+](=O)[O-])cc1 :: 0.014 O.D.
NCCCC[C@H](NC(=O)[C@H](Cc1ccccc1)NC(=O)[C@H](N)CCC(=O)OCCc1ccccc1)C(=O)Nc1ccc([N+](=O)[O-])cc1 :: 0.014 O.D.
Cc1ccc(C(=O)NCCCC[C@@H](N)C(=O)N[C@@H](Cc2ccccc2)C(=O)N[C@@H](CCCCN)C(=O)Nc2ccc([N+](=O)[O-])cc2)cc1 :: 0.011 O.D.

Tested on Kallikrein (KL) (Sus scrofa), the item NCCCC[C@H](NC(=O)[C@H](Cc1ccccc1)NC(=O)[C@H](N)CCC(=O)NCCc1ccccc1)C(=O)Nc1ccc([N+](=O)[O-])cc1 [NPN-4] (HELM PEPTIDE1{[dE].F.K.[O=[N+]([O-])c1ccc(N[*:1])cc1]}|CHEM1{[c1ccc(CCN[*:1])cc1]}$PEPTIDE1,CHEM1,1:R3-1:R1$$$V2.0) showed Selectivity KL, absorbance (O.D.) at 405 nm equal to 0.010 O.D.

Item Cc1ccc(S(=O)(=O)NCC(=O)N2CCC[C@H]2C(=O)N[C@@H](CCCCN)C(=O)Nc2ccc([N+](=O)[O-])cc2)cc1 [CHR-PL, Tos-Gly-Pro-Lys-PNA, reference compound] (HELM PEPTIDE1{[Cc1ccc(S(=O)(=O)[*:2])cc1].G.P.K.[O=[N+]([O-])c1ccc(N[*:1])cc1]}$$$$V2.0) ; assay system Kallikrein (KL) (Sus scrofa); Selectivity KL, absorbance (O.D.) at 405 nm reported as 0.004 O.D.

GET /values?item= Cc1ccc(S(=O)(=O)NCCCC[C@@H](N)C(=O)N[C@@H](Cc2ccccc2)C(=O)N[C@@H](CCCCN)C(=O)Nc2ccc([N+](=O)[O-])cc2)cc1 [NPN-2, H-D-Lys(ToS)-Phe-Lys PNA.2HBr] (H-[dK](Tos)-Phe-Lys-pNA) &system= Kallikrein (KL) (Sus scrofa) returns Selectivity KL, absorbance (O.D.) at 405 nm: 0.004 O.D.

Selectivity KL, absorbance (O.D.) at 405 nm for Kallikrein (KL) (Sus scrofa) with input NCCCC[C@H](NC(=O)[C@H](Cc1ccccc1)NC(=O)[C@H](N)CCCCNS(=O)(=O)c1ccc2ccccc2c1)C(=O)Nc1ccc([N+](=O)[O-])cc1 equals 0.001 O.D.

Entry Cc1ccc(CCOC(=O)CC[C@@H](N)C(=O)N[C@@H](Cc2ccccc2)C(=O)N[C@@H](CCCCN)C(=O)Nc2ccc([N+](=O)[O-])cc2)cc1 ; assay system Kallikrein (KL) (Sus scrofa); Selectivity KL, absorbance (O.D.) at 405 nm recorded at 0.016 O.D.

====

Biological target: plasmin (pig) (Sus scrofa, UniProt P06867)
Sequence (P06867 97-809): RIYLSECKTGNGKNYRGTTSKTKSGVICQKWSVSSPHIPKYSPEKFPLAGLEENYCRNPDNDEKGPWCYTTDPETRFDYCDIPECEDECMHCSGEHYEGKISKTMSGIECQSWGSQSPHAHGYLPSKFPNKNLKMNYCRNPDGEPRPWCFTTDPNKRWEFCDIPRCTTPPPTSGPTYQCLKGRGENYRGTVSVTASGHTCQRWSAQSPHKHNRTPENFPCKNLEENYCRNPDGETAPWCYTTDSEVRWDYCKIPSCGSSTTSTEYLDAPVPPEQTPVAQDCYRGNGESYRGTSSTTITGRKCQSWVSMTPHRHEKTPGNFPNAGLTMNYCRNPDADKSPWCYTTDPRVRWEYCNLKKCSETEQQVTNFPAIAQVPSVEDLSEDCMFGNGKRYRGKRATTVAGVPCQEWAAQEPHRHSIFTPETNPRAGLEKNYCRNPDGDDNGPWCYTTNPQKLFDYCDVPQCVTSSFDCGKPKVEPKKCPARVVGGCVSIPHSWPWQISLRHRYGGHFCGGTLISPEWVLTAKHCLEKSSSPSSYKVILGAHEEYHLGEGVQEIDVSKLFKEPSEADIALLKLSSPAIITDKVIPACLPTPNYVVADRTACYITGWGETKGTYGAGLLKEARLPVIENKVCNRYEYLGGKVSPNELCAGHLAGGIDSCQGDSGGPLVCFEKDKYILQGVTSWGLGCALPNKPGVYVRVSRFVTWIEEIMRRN
Test: Km, Vmax and Vmax/Km of substrates for plasmin (pig)
Type: biochemical, Porcine (pig)
Settings: TABLE 1; V/Km of each sample divided by that of S2251
Where a SMILES comes first, the peptide text is derived from it.
MEASURE NAME: Relative ratio
No unit in the answer, only the number.

Cc1ccc(S(=O)(=O)NCC(=O)N2CCC[C@H]2C(=O)N[C@@H](CCCCN)C(=O)Nc2ccc([N+](=O)[O-])cc2)cc1 [CHR-PL, Tos-Gly-Pro-Lys-PNA, reference compound] (HELM PEPTIDE1{[Cc1ccc(S(=O)(=O)[*:2])cc1].G.P.K.[O=[N+]([O-])c1ccc(N[*:1])cc1]}$$$$V2.0) :: 1.889

The record that follows has no Relative ratio shown yet.
# Relative ratio of NCCCC[C@H](NC(=O)[C@H](Cc1ccccc1)NC(=O)[C@H](N)CCCCNS(=O)(=O)c1ccc2ccccc2c1)C(=O)Nc1ccc([N+](=O)[O-])cc1 = 11.660

====

# reported Relative ratio; entries follow
Molecular target: plasmin (pig) (Sus scrofa, UniProt P06867)
Assay: Km, Vmax and Vmax/Km of substrates for plasmin (pig)
Type: biochemical, Porcine (pig)
Conditions: TABLE 1; V/Km of each sample divided by that of S2251
Where a SMILES comes first, the peptide text is derived from it. [ ]: non-standard residue; d: D form. The star is where a group is joined. pNA = O=[N+]([O-])c1ccc(N*)cc1; Tos = Cc1ccc(S(=O)(=O)*)cc1
Answer with the value's number alone.

Some solved cases for reference:
CC(C)C[C@H](NC(=O)[C@H](N)C(C)C)C(=O)N[C@@H](CCCCN)C(=O)Nc1ccc([N+](=O)[O-])cc1 [S-2251, H-D-Val-Leu-Lys-PNA, reference compound] (HELM PEPTIDE1{[dV].L.K.[O=[N+]([O-])c1ccc(N[*:1])cc1]}$$$$V2.0) :: 1.000
Cc1ccc(S(=O)(=O)NCCCC[C@@H](N)C(=O)N[C@@H](Cc2ccccc2)C(=O)N[C@@H](CCCCN)C(=O)Nc2ccc([N+](=O)[O-])cc2)cc1 [NPN-2, H-D-Lys(ToS)-Phe-Lys PNA.2HBr] (H-[dK](Tos)-Phe-Lys-pNA) :: 26.517

Turning to the following molecule.
Lookup result for NCCCC[C@H](NC(=O)[C@H](Cc1ccccc1)NC(=O)[C@H](N)CCC(=O)NCCCCc1ccccc1)C(=O)Nc1ccc([N+](=O)[O-])cc1 ; measured Relative ratio: 5.427
